Provide the reported pKi of each item.
target: UniProt:P41595; assay: Displacement of [3H]-LSD from human 5-HT2B receptor expressed in HEK cells after 90 mins by microbeta scintillation counting analysis; format: cell-based
Sequence (P41595 whole entry): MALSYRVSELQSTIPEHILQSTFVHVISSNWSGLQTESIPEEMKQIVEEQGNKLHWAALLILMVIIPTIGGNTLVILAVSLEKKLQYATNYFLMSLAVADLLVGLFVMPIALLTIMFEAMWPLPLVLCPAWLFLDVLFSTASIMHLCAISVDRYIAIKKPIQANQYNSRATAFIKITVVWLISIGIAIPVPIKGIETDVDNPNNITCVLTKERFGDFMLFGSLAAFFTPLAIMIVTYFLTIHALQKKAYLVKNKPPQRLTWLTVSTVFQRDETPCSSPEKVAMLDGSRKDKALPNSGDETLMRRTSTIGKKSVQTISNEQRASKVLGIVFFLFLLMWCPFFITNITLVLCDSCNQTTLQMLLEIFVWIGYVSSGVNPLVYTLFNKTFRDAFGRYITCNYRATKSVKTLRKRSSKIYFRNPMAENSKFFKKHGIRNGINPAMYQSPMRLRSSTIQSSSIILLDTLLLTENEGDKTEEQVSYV
Give bare numbers, as −log10 of the molar value.

Solved entries (count: 3):
Quick one: pKi of C[C@@H]1SC(c2c[nH]c3ccccc23)=N[C@H]1CO (relative stereo) ? 5.62

Quick one: pKi of C[C@@H]1SC(c2ccccc2)=N[C@@H]1Cc1c[nH]cn1 (relative stereo) ? 6.16

Quick one: pKi of `COC(=O)[C@H](Cc1cnc[nH]1)NC(=O)[C@H]1N=C(c2ccccc2O)S[C@@H]1C` ? 6.00

Give pKi for each of the items listed below.
1. C[C@H]1SC(c2ccccc2O)=N[C@@H]1CO (racemic)
2. COC(=O)[C@H](Cc1cnc[nH]1)NC(=O)[C@@H]1N=C(c2ccccc2O)S[C@@H]1C
3. C[C@H]1SC(c2ccc(-c3ccccc3)cc2)=N[C@H]1Cc1c[nH]cn1 (relative stereo)

[6.21, 5.85, 5.85]

====

Molecular target: 5-hydroxytryptamine receptor 2C (Homo sapiens, UniProt P28335)
Sequence (P28335 whole entry): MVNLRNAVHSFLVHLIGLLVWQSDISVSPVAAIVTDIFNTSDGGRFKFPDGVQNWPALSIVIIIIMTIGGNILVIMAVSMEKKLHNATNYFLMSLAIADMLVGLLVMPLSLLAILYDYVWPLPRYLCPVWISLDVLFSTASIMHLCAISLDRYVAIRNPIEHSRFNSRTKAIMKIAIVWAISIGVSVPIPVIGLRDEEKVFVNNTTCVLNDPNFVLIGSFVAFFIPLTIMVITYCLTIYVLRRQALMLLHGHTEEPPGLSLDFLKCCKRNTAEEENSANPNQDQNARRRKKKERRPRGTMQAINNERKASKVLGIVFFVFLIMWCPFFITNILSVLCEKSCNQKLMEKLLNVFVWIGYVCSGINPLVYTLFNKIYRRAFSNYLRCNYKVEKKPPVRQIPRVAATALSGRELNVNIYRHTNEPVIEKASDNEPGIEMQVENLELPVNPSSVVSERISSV
Assay: Displacement of [3H]-Mesulergine from human 5-HT2C receptor expressed in HEKT cells after 90 mins by microbeta scintillation counting analysis
Format: cell-based
Parameter Measured: pKi
One number for each entry, as −log10 of the molar value.

Quick one: pKi of CCCCCCOc1ccc(C2=N[C@@H](CO)[C@H](C)S2)cc1 (relative stereo) ? 5.77

Give pKi for each of the items listed below.
1. CNc1ccccc1C1=N[C@@H](CO)[C@H](C)S1 (relative stereo)
2. COC(=O)[C@H](Cc1cnc[nH]1)NC(=O)[C@H]1N=C(c2ccccc2O)S[C@@H]1C

5.72
6.09

====

molecular target: 5-hydroxytryptamine receptor 7 (Homo sapiens); test: Displacement of [3H]-LSD from human 5-HT7A receptor expressed in HEK cells after 90 mins by microbeta scintillation counting analysis; format: cell-based
Sequence (P34969 whole entry): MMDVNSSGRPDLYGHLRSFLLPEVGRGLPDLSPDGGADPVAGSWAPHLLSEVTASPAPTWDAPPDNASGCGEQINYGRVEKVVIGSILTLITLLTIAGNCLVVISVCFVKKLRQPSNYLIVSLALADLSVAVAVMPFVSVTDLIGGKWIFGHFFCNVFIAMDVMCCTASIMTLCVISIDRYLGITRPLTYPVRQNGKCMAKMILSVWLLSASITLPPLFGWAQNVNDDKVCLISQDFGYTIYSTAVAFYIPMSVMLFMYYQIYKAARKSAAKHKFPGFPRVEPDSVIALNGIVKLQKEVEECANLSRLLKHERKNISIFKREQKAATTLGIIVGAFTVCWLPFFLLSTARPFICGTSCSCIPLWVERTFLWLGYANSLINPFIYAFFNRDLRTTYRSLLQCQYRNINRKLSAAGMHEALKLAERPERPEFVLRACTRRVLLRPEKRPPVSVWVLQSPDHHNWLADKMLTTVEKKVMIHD
pKi: −log10 of the molar value.
Provide the reported pKi of each item.

Solved entries (count: 2):
Quick one: pKi of CCCCCCOc1ccc(C2=N[C@@H](CO)[C@H](C)S2)cc1 (relative stereo) ? < 5.00

Quick one: pKi of CCCCCCCCOc1ccc(C2=N[C@@H](CO)[C@H](C)S2)cc1 (relative stereo) ? < 5.00

Give pKi for each of the items listed below.
1. C[C@@H]1SC(c2cc3ccccc3cc2O)=N[C@H]1CO (relative stereo)
2. C[C@@H]1SC(c2ccccc2)=N[C@H]1CO (relative stereo)
3. Oc1ccccc1C1=N[C@@H]2CCC[C@@H]2S1 (racemic)
4. Oc1ccccc1C1=NC(Cc2c[nH]cn2)C(c2ccccc2)S1 (racemic)
5. C[C@@H]1SC(c2ccsc2)=N[C@H]1CO (relative stereo)
6. C[C@@H]1SC(c2ccccc2)=N[C@@H]1Cc1c[nH]cn1 (relative stereo)
7. C[C@@H]1SC(c2c[nH]c3ccccc23)=N[C@H]1CO (relative stereo)

< 5.00
< 5.00
< 5.00
< 5.00
< 5.00
5.48
< 5.00

====

Provide the reported pKi of each item.
target: 5-hydroxytryptamine receptor 2A (Homo sapiens, UniProt P28223); test: Displacement of [3H]Ketanserin from 5-HT2A (unknown origin) receptor after 90 mins by microbeta scintillation counting analysis
Sequence (P28223 whole entry): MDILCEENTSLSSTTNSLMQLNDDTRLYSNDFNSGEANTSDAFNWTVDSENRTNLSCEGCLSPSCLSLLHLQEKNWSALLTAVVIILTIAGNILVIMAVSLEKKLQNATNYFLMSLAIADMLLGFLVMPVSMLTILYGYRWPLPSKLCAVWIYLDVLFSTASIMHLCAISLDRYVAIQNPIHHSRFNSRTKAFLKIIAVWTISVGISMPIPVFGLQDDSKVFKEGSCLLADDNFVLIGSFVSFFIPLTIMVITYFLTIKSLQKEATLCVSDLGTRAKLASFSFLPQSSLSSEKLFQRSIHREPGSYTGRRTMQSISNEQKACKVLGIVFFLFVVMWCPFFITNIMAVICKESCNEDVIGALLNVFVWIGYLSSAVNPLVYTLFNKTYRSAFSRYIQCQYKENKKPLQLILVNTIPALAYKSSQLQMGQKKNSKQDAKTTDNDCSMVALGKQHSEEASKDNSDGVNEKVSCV
pKi: −log10 of the molar value.

Solved entries (count: 6):
Quick one: pKi of C[C@@H]1SC(c2cc3ccccc3cc2O)=N[C@H]1CO (relative stereo) ? < 5.00

Quick one: pKi of C[C@@H]1SC(c2ccc(-c3ccccc3)cc2)=N[C@H]1Cc1c[nH]cn1 (relative stereo) ? 6.62

Quick one: pKi of C[C@@H]1SC(c2ccco2)=N[C@H]1CO (relative stereo) ? < 5.00

Quick one: pKi of C[C@@H]1SC(c2ccccc2)=N[C@H]1CO (relative stereo) ? < 5.00

Quick one: pKi of Oc1ccccc1C1=N[C@@H]2CCC[C@@H]2S1 (racemic) ? < 5.00

Quick one: pKi of C[C@@H]1SC(c2ccccc2)=N[C@H]1Cc1c[nH]cn1 (relative stereo) ? 5.24

Give pKi for each of the items listed below.
1. CNc1ccccc1C1=N[C@@H](CO)[C@H](C)S1 (relative stereo)
2. C[C@@H]1SC(c2cccs2)=N[C@H]1CO (relative stereo)
3. CCCCCCOc1ccc(C2=N[C@@H](CO)[C@H](C)S2)cc1 (relative stereo)

< 5.00
< 5.00
5.41

====

target: 5-hydroxytryptamine receptor 1D (Homo sapiens, UniProt P28221); assay: Displacement of [3H]5-CT from human 5-HT1D receptor expressed in HEKT cells after 90 mins by microbeta scintillation counting analysis; format: cell-based
Sequence (P28221 whole entry): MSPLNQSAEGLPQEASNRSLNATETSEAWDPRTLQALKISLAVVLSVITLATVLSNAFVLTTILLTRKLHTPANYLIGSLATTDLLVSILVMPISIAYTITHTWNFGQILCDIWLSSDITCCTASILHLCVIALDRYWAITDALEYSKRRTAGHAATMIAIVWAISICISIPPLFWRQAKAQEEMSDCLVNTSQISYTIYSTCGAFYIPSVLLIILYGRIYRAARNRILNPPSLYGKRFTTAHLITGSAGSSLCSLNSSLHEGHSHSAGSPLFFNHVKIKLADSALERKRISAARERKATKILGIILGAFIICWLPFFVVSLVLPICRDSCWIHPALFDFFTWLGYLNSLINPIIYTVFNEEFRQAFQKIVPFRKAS
Provide the reported Ki of each item.
One number for each entry, in nM.

Give Ki for each of the items listed below.
1. C[C@@H]1SC(c2c[nH]c3ccccc23)=N[C@H]1CO (relative stereo)
2. COC(=O)[C@H](Cc1cnc[nH]1)NC(=O)[C@H]1N=C(c2ccccc2O)S[C@@H]1C
3. Oc1ccccc1C1=NC(Cc2c[nH]cn2)C(c2ccccc2)S1 (racemic)
4. C[C@@H]1SC(c2ccccc2O)=N[C@H]1Cc1c[nH]cn1 (racemic)
5. CCCCOc1ccc(C2=N[C@@H](CO)[C@H](C)S2)cc1 (relative stereo)
6. C[C@@H]1SC(c2ccccc2)=N[C@@H]1Cc1c[nH]cn1 (relative stereo)

1: 2700; 2: 3300; 3: 2200; 4: 2000; 5: 9700; 6: 1600

====

Target: 5-hydroxytryptamine receptor 2C (Homo sapiens, UniProt P28335)
Sequence (P28335 whole entry): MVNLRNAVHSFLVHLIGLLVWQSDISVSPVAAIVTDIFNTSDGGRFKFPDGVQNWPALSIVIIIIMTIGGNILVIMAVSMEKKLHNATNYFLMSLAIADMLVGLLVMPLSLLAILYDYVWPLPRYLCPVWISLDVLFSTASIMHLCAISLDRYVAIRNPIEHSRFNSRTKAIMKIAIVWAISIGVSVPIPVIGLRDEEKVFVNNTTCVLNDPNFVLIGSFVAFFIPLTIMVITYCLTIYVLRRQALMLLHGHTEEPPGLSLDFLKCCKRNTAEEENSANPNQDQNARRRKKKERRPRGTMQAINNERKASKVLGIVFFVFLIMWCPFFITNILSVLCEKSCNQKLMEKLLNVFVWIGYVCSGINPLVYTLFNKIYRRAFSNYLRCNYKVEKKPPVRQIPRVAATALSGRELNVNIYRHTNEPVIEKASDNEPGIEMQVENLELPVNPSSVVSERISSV
Test: Antagonist activity at 5-HT2C receptor (unknown origin) by calcium release assay
pIC50: −log10 of the molar value.
Provide the reported pIC50 of each item.

Solved entries (count: 2):
Quick one: pIC50 of `COC(=O)[C@H](Cc1cnc[nH]1)NC(=O)[C@H]1N=C(c2ccccc2O)S[C@@H]1C` ? < 5.00

Quick one: pIC50 of C[C@@H]1SC(c2ccccc2O)=N[C@H]1Cc1c[nH]cn1 (racemic) ? 5.17

Others:
Quick one: pIC50 of Oc1ccccc1C1=NC(Cc2c[nH]cn2)C(c2ccccc2)S1 (racemic) ? < 5.00

====

Provide the reported Ki of each item.
target: 5-hydroxytryptamine receptor 3A (Homo sapiens, UniProt P46098); test: Displacement of [3H]-GR65630 from human 5-HT3 receptor expressed in HEKT cells after 90 mins by microbeta scintillation counting analysis; type: cell-based
Sequence (P46098 whole entry): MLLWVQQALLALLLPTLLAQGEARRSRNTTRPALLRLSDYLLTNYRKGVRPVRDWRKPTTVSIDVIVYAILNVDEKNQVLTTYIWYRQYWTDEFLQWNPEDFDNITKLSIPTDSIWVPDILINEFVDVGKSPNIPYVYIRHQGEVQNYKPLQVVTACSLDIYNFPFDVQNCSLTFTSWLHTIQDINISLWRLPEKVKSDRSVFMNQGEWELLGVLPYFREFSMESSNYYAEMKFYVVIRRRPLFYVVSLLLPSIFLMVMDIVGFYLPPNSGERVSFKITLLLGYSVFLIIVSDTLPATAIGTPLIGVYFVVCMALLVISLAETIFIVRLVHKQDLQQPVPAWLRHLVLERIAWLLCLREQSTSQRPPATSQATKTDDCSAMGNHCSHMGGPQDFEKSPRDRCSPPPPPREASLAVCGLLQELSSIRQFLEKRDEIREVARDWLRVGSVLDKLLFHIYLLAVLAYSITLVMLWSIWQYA
Answers are plain numbers, in µM.

Quick one: Ki of C[C@@H]1SC(c2ccccc2)=N[C@H]1CO (relative stereo) ? 6.7

Then this compound:
Quick one: Ki of Oc1ccccc1C1=NC(Cc2c[nH]cn2)C(c2ccccc2)S1 (racemic) ? 0.86

====

target: 5-hydroxytryptamine receptor 4 (Homo sapiens); assay: Antagonist activity at 5-HT4 receptor (unknown origin) by Tango assay
Sequence (Q13639 whole entry): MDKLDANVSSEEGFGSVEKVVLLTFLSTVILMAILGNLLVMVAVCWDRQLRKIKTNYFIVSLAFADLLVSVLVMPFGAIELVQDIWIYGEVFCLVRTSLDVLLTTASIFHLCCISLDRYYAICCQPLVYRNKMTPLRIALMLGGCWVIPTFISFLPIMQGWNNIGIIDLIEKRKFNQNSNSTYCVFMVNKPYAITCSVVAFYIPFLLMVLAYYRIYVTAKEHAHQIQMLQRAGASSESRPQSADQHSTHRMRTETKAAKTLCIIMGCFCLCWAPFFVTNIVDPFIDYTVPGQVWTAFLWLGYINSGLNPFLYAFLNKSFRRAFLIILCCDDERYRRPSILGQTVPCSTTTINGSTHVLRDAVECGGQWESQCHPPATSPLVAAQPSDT
Parameter Measured: IC50

Quick one: IC50 of CCCCCCOc1ccc(C2=N[C@@H](CO)[C@H](C)S2)cc1 (relative stereo) ? > 10 µM

Then this compound:
Quick one: IC50 of CCCCOc1ccc(C2=N[C@@H](CO)[C@H](C)S2)cc1 (relative stereo) ? > 10 µM
